meta.source: patent US20080167330A1

# testedTarget: CDK2/CycE (Homo sapiens)
# Construct: GST
# protocolText: CDK2/CycE kinase assay
# assayContext: 0.5 μM ATP
quantityKind: pIC50
Answers are plain numbers, as −log10 of the molar value.

molecule	pIC50
C[C@@H](O)[C@@H](C)Nc1nc(Nc2cccc(C(=O)N=S(C)(C)=O)c2)ncc1Br [Example 17]	8.05
C[C@@H](Nc1nc(Nc2ccc(C(=O)N=S(C)(C)=O)cc2)ncc1Br)C(C)(C)O [Example 19]	7.96
C[C@@H](O)[C@@H](C)Oc1nc(Nc2cccc(NC(=O)N=S(C)(C)=O)c2)ncc1Br [Example 6]	8.15
C[C@@H](O)[C@@H](C)Nc1nc(Nc2ccc(F)c(NC(=O)N=S(C)(C)=O)c2)ncc1Br [Example 7]	8.52
Cc1ccc(Nc2ncc(Br)c(N[C@H](C)[C@@H](C)O)n2)cc1NC(=O)N=S(C)(C)=O [Example 8]	7.92

Supply pIC50 value. Item: COc1cc(Nc2ncc(Br)c(N[C@H](C)[C@@H](C)O)n2)ccc1NC(=O)N=S(C)(C)=O [Example 11]
7.72
